// data source = ChEMBL document CHEMBL4689842

System: HEK-293T
Experiment: Multiplex assay against HEK293T
Format: toxicity, cell-based
Conditions: human, 48 h, 10 µM, compound concentration 10 uM, replicate 2
Would you mind labelling by Population Mitotic Cells (%)? At or over 80% is Y, under is N.

| Compound | Group Label |
| --- | --- |
| CC(Cc1ccc(O)c(O)c1)C(C)Cc1ccc(O)c(O)c1 (stereo not given) [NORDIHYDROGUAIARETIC ACID] | Y |
| CN1CCN(Cc2ccc(-c3cnc4[nH]cc(-c5ccc6[nH]ccc6c5)c4c3)cc2)CC1 | N |
| CN(c1cc(C(F)(F)F)nc(OCCC(=O)O)n1)c1cccc2c1CCC2 | Y |
| CC(/C=C1\SC(=S)N(CCCC(=O)Nc2ccc(C(=O)O)c(O)c2)C1=O)=C\c1ccccc1 | Y |

Could you tell me if the measured Population Mitotic Cells (%) of CC(C)c1cc(Nc2nc(N3CCC[C@H](N)C3)ncc2C(N)=O)cc(C(C)C)n1 reaches 80% or more?
N

###

Tested on: U2OS
Assay: Multiplex assay against U2OS
Assay type: toxicity, cell-based
Details: human, 48 h, 10 µM, compound concentration 10 uM, replicate 2
Collected Population Tubulin-Different-Phenotype (%) values appear next to each entry.
Reply with a number, then the unit it belongs to.

# annotated cases, reported Population Tubulin-Different-Phenotype (%) shown
| Compound | Target Under Test | Result |
| --- | --- | --- |
| CCCCCNC(=N)N/N=C/c1c[nH]c2ccc(OC)cc12.O=C(O)/C=C\C(=O)O [TEGASEROD MALEATE] | U2OS | 90% |
| CN1C(=O)[C@@H](NC(=O)c2cc3ccccc3[nH]2)N=C(c2ccccc2)c2ccccc21 [DEVAZEPIDE] | U2OS | 58% |
| CC(C)C[C@H](NC(=O)[C@H](Cc1ccccc1)NC(=O)CNC(=O)CNC(=O)[C@@H](N)Cc1ccc(O)cc1)C(=O)O | U2OS | 15% |
| Cc1ccc(S(=O)(=O)NC2c3ccccc3Oc3ccccc32)cc1 | U2OS | 37% |
| Cl.NC[C@@H]1O[C@H](C23CC4CC(CC(C4)C2)C3)Cc2c1ccc(O)c2O | U2OS | 66% |

Item CN1CCN(Cc2ccc(-c3cnc4[nH]cc(-c5ccc6[nH]ccc6c5)c4c3)cc2)CC1 : provide Population Tubulin-Different-Phenotype (%)
95%

Item Oc1cccc(-c2nc(N3CCOCC3)c3oc4ncccc4c3n2)c1 : provide Population Tubulin-Different-Phenotype (%)
88%

Item N#CCNC(=O)c1ccc(-c2ccnc(Nc3ccc(N4CCOCC4)cc3)n2)cc1 : provide Population Tubulin-Different-Phenotype (%)
26%

###

System: HEK-293T
Assay: Multiplex assay against HEK293T
Assay type: toxicity, cell-based
Details: human, 48 h, 1 µM, compound concentration 1 uM, replicate 1
Collected Total Cell Count values appear next to each entry.
Give a plain numeric answer without units written out.

# annotated cases, reported Total Cell Count shown
| Compound | Total Cell Count |
| --- | --- |
| CCCCN(CC)c1nc(C)nc2c1c(C)cn2-c1c(C)cc(C)cc1C.Cl | 315 |
| CN(c1cc(C(F)(F)F)nc(OCCC(=O)O)n1)c1cccc2c1CCC2 | 228 |
| CN1C(=O)[C@@H](NC(=O)c2cc3ccccc3[nH]2)N=C(c2ccccc2)c2ccccc21 [DEVAZEPIDE] | 356 |
| CC(C)[C@H](CO)Nc1nc(Nc2cccc(Cl)c2)c2ncn(C(C)C)c2n1 [PURVALANOLA] | 347 |
| CC(C)C[C@H](NC(=O)[C@H](Cc1ccccc1)NC(=O)CNC(=O)CNC(=O)[C@@H](N)Cc1ccc(O)cc1)C(=O)O [ENKEPHALIN] | 212 |

Item CC(Cc1ccc(O)c(O)c1)C(C)Cc1ccc(O)c(O)c1 (centres undefined) [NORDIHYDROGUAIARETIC ACID] : provide Total Cell Count
223
